- protocol_notes: qHTS assay to test for compound auto fluorescence at 460 nm (blue) in HepG2 cells (AID 720687)
- condition_notes: autofluorescence 405/460 nm, 1 h; series mostly up to 46 µM
The source made the active and inactive calls. Calls follow the shape of the dose curve; as a rule, active = well fitted curve in the direction sought with a large enough effect in the repeat runs; inconclusive = weak or mixed curves; inactive = flat fitted curve, though single readings scatter. Positions of bridges follow the written chain, without caps; N, C: chain ends. Residues, ends and D or L forms follow the SMILES beside them.
endpoint_name: outcome

compound | endpoint_name | result
O=C(c1cc2ccccc2o1)N1CCN(Cc2ccccc2)CC1 | outcome | inactive
CCN(CC)c1ccc(N=Nc2ccc(S(=O)(=O)N(C)C)cc2)c(S(=O)(=O)NCC[n+]2ccccc2)c1 | outcome | inactive
COc1ccc2cc([C@H](C)CO)ccc2c1 | outcome | inactive
Cc1cc(/C=C/c2ccc3cc(N(C)C)ccc3[n+]2C)c(C)n1-c1ccccc1 | outcome | inactive
COC(=O)[C@@H](N)CS | outcome | inactive
CC(CN(C)C)CN1c2ccccc2S(=O)(=O)c2ccccc21 (stereo not drawn) | outcome | inactive

I am curious: what outcome value has been reported for CCC(=O)OCC(=O)[C@@]1(OC(=O)CC)[C@@H](C)C[C@H]2[C@@H]3CCC4=CC(=O)C=C[C@]4(C)[C@@]3(F)[C@@H](O)C[C@@]21C ?
inactive

State the recorded outcome for this entry: C=C1CC2C3CCC4=CC(=O)C=C[C@]4(C)[C@@]3(F)[C@@H](O)C[C@]2(C)[C@@]1(O)C(=O)COC(C)=O (stereo partly drawn)
inactive

Requested read-out: outcome. Entry: NCCCC[C@H](NC(=O)[C@@H]1CCCN1C(=O)[C@@H]1CSSC[C@H](NC(=O)CNC(=O)CNC(=O)CN)C(=O)N[C@@H](Cc2ccc(O)cc2)C(=O)N[C@@H](Cc2ccccc2)C(=O)N[C@@H](CCC(N)=O)C(=O)N[C@@H](CC(N)=O)C(=O)N1)C(=O)NCC(N)=O (H-GGGCYFQNCPKG-NH2; disulfide 4-9)
inactive
